Recorded values, source patent US12486300B2.

System: TC32 Ewing sarcoma cells, expressing EWS-FLI1
Test: Growth inhibition assay, TC32 cells
Type: cell-based
Conditions: ratio of GI50 PC3 to TC32
Measurement type: PC:TC32 (cellular selectivity)

INSERT INTO results (molecule, measurement_type, experimental_result) VALUES
  ('COC(C(=NOCCc1c[nH]c2ccccc12)C(O)C(C)O)C1Cc2cc3cc(OC4CC(OC5CC(O)C(O)C(C)O5)C(O)C(C)O4)c(C)c(O)c3c(O)c2C(=O)C1OC1CC(OC2CC(OC3CC(C)(O)C(O)C(C)O3)C(O)C(C)O2)C(O)C(C)O1 (stereo not drawn) [MTM (19)]', 'PC:TC32 (cellular selectivity)', 1.70),
  ('COC(C(=NOCCCCc1c[nH]c2ccccc12)C(O)C(C)O)C1Cc2cc3cc(OC4CC(OC5CC(O)C(O)C(C)O5)C(O)C(C)O4)c(C)c(O)c3c(O)c2C(=O)C1OC1CC(OC2CC(OC3CC(C)(O)C(O)C(C)O3)C(O)C(C)O2)C(O)C(C)O1 (stereo not drawn)', 'PC:TC32 (cellular selectivity)', 1.54),
  ('CO[C@H](/C(=N/OCC(=O)N[C@@H](Cc1c[nH]c2ccccc12)C(=O)N(C)OC)[C@@H](O)[C@@H](C)O)[C@@H]1Cc2cc3cc(O[C@H]4C[C@@H](O[C@H]5C[C@@H](O)[C@H](O)C(C)O5)[C@H](O)C(C)O4)c(C)c(O)c3c(O)c2C(=O)[C@H]1O[C@H]1C[C@@H](O[C@H]2C[C@@H](O[C@H]3C[C@](C)(O)[C@H](O)C(C)O3)[C@H](O)C(C)O2)[C@H](O)C(C)O1 (stereo partly drawn)', 'PC:TC32 (cellular selectivity)', 1.7);
